Experiment: Antimigraine activity in human citreated platelet assessed as inhibition of [14C]serotonin release after 6 mins by scintillation counting
Type: functional, cell-based
Settings: 0.1 h
Where a name gives a salt, the structure may show the parent alone.
Attribute Measured: IC50 (µM)
// return numeric value only (unit: µM, not printed)

Give its IC50 value. Item: C=C1C(=O)O[C@@H]2C3O[C@]3(C)CC/C=C(\C)CC[C@@H]12 (some centres not stated) 5.64

Field entry: COc1ccc(CCN(C)CCCC(C#N)(c2ccc(OC)c(OC)c2)C(C)C)cc1OC (configuration not stated) [VERAPAMIL HYDROCHLORIDE] 770
